Target: T1, human SLITRK6 on cells (human, UniProt Q9H5Y7 27-841)
T1 construct: whole, on cells
Assay: flow cytometry on 293F-huSLITRK6-C9 cells
recorded_metric: EC50

- Sirtratumab (antibody, V domains shown, Prior-art benchmark antibody; also called Sirtratuzumab) VH: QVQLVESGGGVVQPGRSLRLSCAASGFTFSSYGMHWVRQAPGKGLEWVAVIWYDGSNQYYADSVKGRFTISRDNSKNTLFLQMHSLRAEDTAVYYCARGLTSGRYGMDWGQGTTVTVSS VL: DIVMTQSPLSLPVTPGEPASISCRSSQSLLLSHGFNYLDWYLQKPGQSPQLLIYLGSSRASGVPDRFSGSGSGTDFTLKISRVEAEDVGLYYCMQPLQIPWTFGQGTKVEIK: 1.41 nM
- hu14G1-03 (antibody, V domains shown) VH: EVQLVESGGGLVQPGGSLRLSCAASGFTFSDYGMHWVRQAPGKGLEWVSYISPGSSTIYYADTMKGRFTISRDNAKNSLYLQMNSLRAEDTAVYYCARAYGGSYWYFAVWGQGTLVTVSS VL: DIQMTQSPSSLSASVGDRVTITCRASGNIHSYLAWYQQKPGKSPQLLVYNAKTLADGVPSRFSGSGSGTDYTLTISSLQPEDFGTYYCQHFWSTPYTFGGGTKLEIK: 1.77 nM
- phA290 (antibody, V domains shown, From phage display, then full-length construction; Only the variable regions are tied to the name) VH: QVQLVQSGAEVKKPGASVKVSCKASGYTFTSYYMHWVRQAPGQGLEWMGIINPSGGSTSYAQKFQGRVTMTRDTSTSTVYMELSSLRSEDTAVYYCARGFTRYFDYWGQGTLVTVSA VL: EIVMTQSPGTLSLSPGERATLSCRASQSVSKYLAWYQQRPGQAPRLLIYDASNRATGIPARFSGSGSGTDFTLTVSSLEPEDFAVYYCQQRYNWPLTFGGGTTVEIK: 1.16 nM
- hu1H2-03 (antibody, V domains shown, see m20) VH: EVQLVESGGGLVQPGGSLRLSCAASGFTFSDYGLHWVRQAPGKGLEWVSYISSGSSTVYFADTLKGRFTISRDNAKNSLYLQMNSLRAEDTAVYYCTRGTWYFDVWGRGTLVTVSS VL: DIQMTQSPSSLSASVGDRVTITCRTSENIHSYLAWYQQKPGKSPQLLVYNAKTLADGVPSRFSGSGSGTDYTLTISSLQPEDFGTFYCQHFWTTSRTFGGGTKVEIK: 1.33 nM
- phA108 (antibody, V domains shown, From phage display, then full-length construction; Only the variable regions are tied to the name) VH: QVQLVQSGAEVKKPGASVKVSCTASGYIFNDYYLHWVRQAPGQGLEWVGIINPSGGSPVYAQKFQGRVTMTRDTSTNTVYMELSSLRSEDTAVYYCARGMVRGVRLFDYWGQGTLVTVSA VL: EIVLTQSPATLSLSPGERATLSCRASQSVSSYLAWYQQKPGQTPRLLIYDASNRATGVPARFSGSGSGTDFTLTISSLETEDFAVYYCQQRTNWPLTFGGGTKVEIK: 0.87 nM
- hu1H2-13 (antibody, V domains shown) VH: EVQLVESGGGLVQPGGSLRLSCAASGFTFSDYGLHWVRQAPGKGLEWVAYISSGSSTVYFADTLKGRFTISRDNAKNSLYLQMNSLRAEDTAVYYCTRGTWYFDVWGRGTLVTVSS VL: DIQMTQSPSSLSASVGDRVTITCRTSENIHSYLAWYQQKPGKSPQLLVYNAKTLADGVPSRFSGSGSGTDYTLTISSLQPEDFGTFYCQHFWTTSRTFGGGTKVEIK: 1.32 nM
